# Tested on: Pseudomonas aeruginosa
# procedureDetails: Potentiation of colistin-induced antibacterial activity against Pseudomonas aeruginosa assessed as colistin MIC at 50 uM incubated for 20 hrs by susceptibility testing (reference value: 1 to 2 ug/ml)
# Format: functional
Overview of recorded MIC for various compounds
metricName: MIC

chemicalstring=CCCCCCCCCc1ccccc1C(=O)NS(=O)(=O)c1ccccc1F reported="1 µg/mL"
chemicalstring=CCCCCCCCC/C=C\C(=O)O reported="1 µg/mL"
chemicalstring=CCCCCCCCCc1ccccc1C(=O)NS(C)(=O)=O reported="1 µg/mL"
chemicalstring=CCCCCCCCCc1ccccc1C(=O)NS(=O)(=O)c1ccc(C(C)(C)C)cc1 reported="1 µg/mL"
chemicalstring=CCCCCCCCCc1ccccc1C(=O)NS(=O)(=O)c1cccc(Br)c1 reported="4 µg/mL"

These measurements were taken from ChEMBL document CHEMBL5335788.
